Where do these numbers come from? They come from patent US9725459B2.

Please respond with reported Ki for every item in the list.
Biological target: human cathepsin K (CatK) (Homo sapiens (Human), UniProt P43235)
Sequence (P43235 115-329): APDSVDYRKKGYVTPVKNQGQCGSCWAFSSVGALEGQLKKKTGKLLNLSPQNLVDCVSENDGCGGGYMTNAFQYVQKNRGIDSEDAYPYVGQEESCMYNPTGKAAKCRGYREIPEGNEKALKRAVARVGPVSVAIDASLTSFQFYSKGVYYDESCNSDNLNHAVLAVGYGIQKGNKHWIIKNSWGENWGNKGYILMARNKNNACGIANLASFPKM
Experiment: CatK functional enzyme assay
Settings: recombinant human CatK, substrate Z-FR-AMC 40 μM, pH 5.5; Ki by Cheng Prusoff equation; read-out: hCatK, Ki
Give bare numbers, in µM.

Reference set, count: 4
- compound.structure: "O=C(N[C@H](C(=O)N1C[C@H](Cl)[C@H]2OCC(=O)[C@H]21)C1CCCCC1)c1ncc(-c2ccncn2)s1"
  measurement.target: "human cathepsin K (CatK) (Homo sapiens (Human), UniProt P43235)"
  Ki [µM]: 0.048
- compound.structure: "Cc1ncc(-c2cnc(C(=O)N[C@H](C(=O)N3C[C@H](Cl)[C@H]4OCC(=O)[C@H]43)C3CCCCC3)s2)cn1"
  measurement.target: "human cathepsin K (CatK) (Homo sapiens (Human), UniProt P43235)"
  Ki [µM]: 0.026
- compound.structure: "Cc1cc(-c2ccc(C(=O)N[C@H](C(=O)N3C[C@H](Cl)[C@H]4OCC(=O)[C@H]43)C3CCCCC3)s2)c(C)nn1"
  measurement.target: "human cathepsin K (CatK) (Homo sapiens (Human), UniProt P43235)"
  Ki [µM]: 0.018
- compound.structure: "O=C(N[C@H](C(=O)N1C[C@H](Cl)[C@H]2OCC(=O)[C@H]21)C1CCCCC1)c1ccc(-c2ccc[n+]([O-])c2)s1"
  measurement.target: "human cathepsin K (CatK) (Homo sapiens (Human), UniProt P43235)"
  Ki [µM]: 0.019

--- query ---
Challenge: So what does the record say about Ki for O=C(N[C@H](C(=O)N1C[C@H](Cl)[C@H]2OCC(=O)[C@H]21)C1CCCCC1)c1ccc(-c2cccnn2)s1 ?
Response given: 0.011

----------
Target: human cathepsin L (CatL) (Homo sapiens (Human))
Test: CatL functional enzyme assay
Assay type: biochemical
Conditions: read-out: hCatL, inhibition [%] at 31.6 μM
value.kind: inhibition at 31.6 µM (%)
One number for each entry, in %.

- compound: "Cc1ncc(-c2ccc(C(=O)N[C@H](C(=O)N3C[C@H](Cl)[C@H]4OCC(=O)[C@H]43)C3CCCCC3)s2)c(C)n1 [Example 81]"
  inhibition at 31.6 µM, %: 18

Provide inhibition at 31.6 µM for all items below, preserving their order.
1. COc1ccc(-c2ccc(C(=O)N[C@H](C(=O)N3C[C@H](Cl)[C@H]4OCC(=O)[C@H]43)C3CCCCC3)s2)nn1 [Example 34]
2. O=C(N[C@H](C(=O)N1C[C@H](Cl)[C@H]2OCC(=O)[C@H]21)C1CCCCC1)c1ccc(-c2ccnnc2)o1 [Example 19]

Response given:
15
12

----------
Molecular target: human cathepsin L (CatL) (Homo sapiens (Human), UniProt P07711)
Sequence (P07711 114-333): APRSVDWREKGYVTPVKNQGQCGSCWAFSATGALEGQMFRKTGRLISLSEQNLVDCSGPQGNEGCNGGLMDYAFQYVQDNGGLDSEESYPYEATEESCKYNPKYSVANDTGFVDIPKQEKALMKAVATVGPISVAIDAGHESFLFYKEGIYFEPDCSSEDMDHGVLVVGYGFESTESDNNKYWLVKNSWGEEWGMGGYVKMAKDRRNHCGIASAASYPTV
Experiment: CatL functional enzyme assay
Type: biochemical
Conditions: read-out: hCatL, inhibition [%] at 31.6 μM
value.kind: inhibition at 31.6 µM (%)
One number for each entry, in %.

Reference set, count: 3
- compound.structure: "O=C(N[C@H](C(=O)N1C[C@H](Cl)[C@H]2OCC(=O)[C@H]21)C1CCCCC1)c1ccc(-c2cccnn2)s1"
  units.of.measure: "%"
  inhibition at 31.6 µM: 36
- compound.structure: "Cc1cc(-c2ccc(C(=O)N[C@H](C(=O)N3C[C@H](Cl)[C@H]4OCC(=O)[C@H]43)C3CCCCC3)s2)cnn1"
  units.of.measure: "%"
  inhibition at 31.6 µM: 24
- compound.structure: "O=C(N[C@H](C(=O)N1C[C@H](Cl)[C@H]2OCC(=O)[C@H]21)C1CCCCC1)c1ccc(-c2ccncc2)o1"
  units.of.measure: "%"
  inhibition at 31.6 µM: 18

Provide inhibition at 31.6 µM for all items below, preserving their order.
1. O=C(N[C@H](C(=O)N1C[C@H](Cl)[C@H]2OCC(=O)[C@H]21)C1CCCCC1)c1ncc(-c2cccnc2)s1
2. Cc1ncc(-c2cnc(C(=O)N[C@H](C(=O)N3C[C@H](Cl)[C@H]4OCC(=O)[C@H]43)C3CCCCC3)s2)cn1

Response given:
26
25

----------
Target: human cathepsin S (CatS) (Homo sapiens (Human), UniProt P25774)
Sequence (P25774 115-331): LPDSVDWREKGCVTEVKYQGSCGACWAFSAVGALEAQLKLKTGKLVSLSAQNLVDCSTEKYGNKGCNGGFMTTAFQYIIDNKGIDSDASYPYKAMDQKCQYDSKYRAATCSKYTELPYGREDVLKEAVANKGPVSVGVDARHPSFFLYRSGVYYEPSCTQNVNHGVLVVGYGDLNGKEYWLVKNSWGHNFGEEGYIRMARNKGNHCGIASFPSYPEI
Assay: CatS functional enzyme assay
Type: biochemical
Conditions: ratio Ki(hCatS)/Ki(hCatK)
Please respond with reported Selectivity Ki(hCatS)/Ki(hCatK) for every item in the list.
Numbers only.

Reference set, count: 5
- compound: "Cc1ncccc1-c1ccc(C(=O)N[C@H](C(=O)N2C[C@H](Cl)[C@H]3OCC(=O)[C@H]32)C2CCCCC2)s1"
  measurement.target: "human cathepsin S (CatS) (Homo sapiens (Human), UniProt P25774)"
  Selectivity Ki(hCatS)/Ki(hCatK): 44.0
- compound: "O=C(N[C@H](C(=O)N1C[C@H](Cl)[C@H]2OCC(=O)[C@H]21)C1CCCCC1)c1ccc(-c2cnc(C3CC3)nc2)s1"
  measurement.target: "human cathepsin S (CatS) (Homo sapiens (Human), UniProt P25774)"
  Selectivity Ki(hCatS)/Ki(hCatK): 2.4
- compound: "O=C(N[C@H](C(=O)N1C[C@H](Cl)[C@H]2OCC(=O)[C@H]21)C1CCCCC1)c1ncc(-c2ccc(C3CC3)nc2)s1"
  measurement.target: "human cathepsin S (CatS) (Homo sapiens (Human), UniProt P25774)"
  Selectivity Ki(hCatS)/Ki(hCatK): 21.3
- compound: "O=C(N[C@H](C(=O)N1C[C@H](Cl)[C@H]2OCC(=O)[C@H]21)C1CCCCC1)c1ccc(-c2cnc(C(F)(F)F)nc2)s1"
  measurement.target: "human cathepsin S (CatS) (Homo sapiens (Human), UniProt P25774)"
  Selectivity Ki(hCatS)/Ki(hCatK): 4.0
- compound: "O=C(N[C@H](C(=O)N1C[C@H](Cl)[C@H]2OCC(=O)[C@H]21)C1CCCCC1)c1ccc(-c2cncc(F)c2)s1"
  measurement.target: "human cathepsin S (CatS) (Homo sapiens (Human), UniProt P25774)"
  Selectivity Ki(hCatS)/Ki(hCatK): 19.9

Provide Selectivity Ki(hCatS)/Ki(hCatK) for all items below, preserving their order.
1. CCc1cc(-c2ccc(C(=O)N[C@H](C(=O)N3C[C@H](Cl)[C@H]4OCC(=O)[C@H]43)C3CCCCC3)s2)cnn1
2. O=C(N[C@H](C(=O)N1C[C@H](Cl)[C@H]2OCC(=O)[C@H]21)C1CCCCC1)c1cccc(-c2cn[nH]c2)c1 [Example C1, reference compound]
3. O=C(N[C@H](C(=O)N1C[C@H](Cl)[C@H]2OCC(=O)[C@H]21)C1CCCCC1)c1ccc(-c2cnnc(O)c2)s1
4. O=C(N[C@H](C(=O)N1C[C@H](Cl)[C@H]2OCC(=O)[C@H]21)C1CCCCC1)c1ccc(-c2cncnc2)o1
5. O=C(N[C@H](C(=O)N1C[C@H](Cl)[C@H]2OCC(=O)[C@H]21)C1CCCCC1)c1ccc(-c2cccnc2)o1
6. O=C(N[C@H](C(=O)N1C[C@H](Cl)[C@H]2OCC(=O)[C@H]21)C1CCCCC1)c1ccc(-c2cncnc2)s1

Response given:
1: 1.1; 2: 3.8; 3: 2.6; 4: 1.1; 5: 11.3; 6: 1.5

----------
Biological target: UniProt:P43235
Assay: CatK functional enzyme assay
Settings: recombinant human CatK, substrate Z-FR-AMC 40 μM, pH 5.5; Ki by Cheng Prusoff equation; read-out: hCatK, Ki
// assign Y if Ki falls strictly below 20 nM, else N (ties count as N)

Recorded results for 4 molecules are shown here.
- molecule: "N#Cc1cncc(-c2ccc(C(=O)N[C@H](C(=O)N3C[C@H](Cl)[C@H]4OCC(=O)[C@H]43)C3CCCCC3)s2)c1 [Example 39]"
  answer.label: "Y"
- molecule: "COc1cc(-c2ccc(C(=O)N[C@H](C(=O)N3C[C@H](Cl)[C@H]4OCC(=O)[C@H]43)C3CCCCC3)s2)ccn1 [Example 56]"
  answer.label: "Y"
- molecule: "O=C(N[C@H](C(=O)N1C[C@H](Cl)[C@H]2OCC(=O)[C@H]21)C1CCCCC1)c1cnc(-c2cccnc2)s1 [Example 13]"
  answer.label: "N"
- molecule: "O=C(N[C@H](C(=O)N1C[C@H](Cl)[C@H]2OCC(=O)[C@H]21)C1CCCCC1)c1ccc(-c2ccc(C(F)(F)F)nc2)s1 [Example 62]"
  answer.label: "N"

Challenge: Lab note: confirm whether the reported Ki for this molecule is below 20 nM, equality not counting. molecule: O=C(N[C@H](C(=O)N1C[C@H](Cl)[C@H]2OCC(=O)[C@H]21)C1CCCCC1)c1ccc(-c2ccncc2F)s1 [Example 31]
Response given: Y
